Reported melting point by item:

{"columns": ["Compound", "melting point"],
 "data": [
  ["COc1nc(N2CCOCC2)cnc1NS(=O)(=O)c1cccc(Cl)c1Cl", "167 to 168 °C"],
  ["C[C@H](C#Cc1ccc(Cc2ccc3ccccc3c2)s1)N(O)C(N)=O", "134 to 135 °C"],
  ["Cc1cccc2ncc(C(=O)NC34CC5CC(CC(C5)C3)C4)c(=O)n12", "190 to 193 °C"],
  ["COc1cc(CNc2nc(C)nc(C)c2Cl)ccc1O", "179 to 182 °C"],
  ["CCCCC=CCCCCC(=O)CCCCC=CCCCCC=O", "80 to 83 °C"],
  ["COc1cccc2c1C(=O)c1ccccc1C21CCN(C)CC1", "170 to 172 °C"],
  ["CCOC(=O)c1c(C(=O)O)c2c(OCc3ccccc3)ccc3c(CC)c(-c4ccc(OCc5ccccc5)cc4)c1n32", "171 to 173 °C"],
  ["CSc1cc(=O)c2occc2s1", "149 to 150 °C"],
  ["O=S(=O)(c1ccc(O)cc1)c1c(-c2ccccc2)oc2ccccc12", "166 to 168 °C"],
  ["CC(C)N(CCC(C#N)c1ccc(-c2ccccc2)cc1)C(C)C (stereo not given)", "54 to 56 °C"],
  ["COc1cc(C2COc3c(C)c(C)c(NC(=O)CC(C)(C)C)c(C)c32)ccc1C(C)=O (stereo not given)", "131 to 133 °C"],
  ["COC(=O)C1CCCN(COS(C)(=O)=O)c2c1cc(OCc1ccccc1)c1ccccc21 (stereo not given)", "130 to 132 °C"],
  ["CCNc1c(O)ccc(N(CCO)CCO)c1[N+](=O)[O-]", "115 °C"],
  ["O=C(c1ccccc1)N1CCN(c2c(Cl)cncc2Cl)CC1", "132 to 134 °C"],
  ["NC(=O)c1cnc2ccsc2c1Cl", "180 to 182 °C"]
]}
